assay: Acute toxicity; type: in vivo, mice; settings: mouse, in vivo, ip; administered intraperitonealy; 5 week old female ICR mice; read-out: LD₅₀ after one week
OUTCOME MEASURE: LD50 at 168 h (mg/kg)
I only need the number, in mg/kg, no unit after it.

Quick note, LD50 at 168 h for Oc1cc(O)c2c(c1)O[C@H](c1cc(O)c(O)c(O)c1)[C@H](O)C2 [(-)epigallocatechin, (-) Epigallocatechin] landed at 150
